Tested on: MV4:11 human cancer cell lines
Experiment: Cellular viability / anti-proliferative assay, CellTiter-Glo, 5 day protocol
Type: cell-based
Settings: Homo sapiens, MV4-11, 120 h, MV4:11 cells; 5 day incubation; CellTiter-Glo; mean of at least two replicates; read-out: GI50 on cellular proliferation of MV4:11 human cancer cell lines
Protocol: Cellular Viability of Human Tumor Cell Lines Anti-proliferative activity using MLL-harboring cell lines. […] After a set incubation period, 5 day protocol, the viability of cells in each well is assessed using the CellTiter-Glo assay (Promega), read on a 96 Microplane Luminometer (Cytation 3, BioTek). Serial dilutions of each cell type are performed in all assays to generate standard curves and the final densities of cells are determined within the dynamic range of the instrument. […]
endpoint_label: GI50 (nM)
Report as a plain number; the unit nM is understood.

{"columns": ["compound", "test_target", "GI50, nM"],
 "data": [
  ["CCc1cc(COC2CNC2)c2nccc(N3CCc4c(cc(Cn5ccnc5)cc4-c4cn(C)nc4C(F)(F)F)C3=O)c2c1 [Example 179]", "MV4:11 human cancer cell lines", 33],
  ["CCc1cc(C(=O)NC)c2nccc(N3CCc4c(cc(Cn5ccnc5)cc4-c4cccnc4C(F)(F)F)C3=O)c2c1 [Example 199]", "MV4:11 human cancer cell lines", 131]
]}

Moving on to another compound below.
Requested read-out GI50, target or system MV4:11 human cancer cell lines, entry CCc1cc(N(C)CCN(C)C)c2nccc(N3CCc4c(cc(Cn5ccnc5)cc4-c4cn(C)nc4C(F)(F)F)C3=O)c2c1 [Example 38]
31

---

system: MV4:11 human cancer cell lines; experiment: Cellular viability / anti-proliferative assay, CellTiter-Glo, 5 day protocol; type: cell-based; details: Homo sapiens, MV4-11, 120 h, MV4:11 cells; 5 day incubation; CellTiter-Glo; mean of at least two replicates; read-out: GI50 on cellular proliferation of MV4:11 human cancer cell lines
GI50 by entry:

These recorded examples may help you get a feel for the data.
{"columns": ["structure_smiles", "test_target", "endpoint_label", "readout_value"],
 "data": [
  ["COc1cc(CN2CCN(C)C(=O)C2)c2nccc(N3CCc4c(cc(Cn5ccnc5)cc4-c4cn(C)nc4C(F)(F)F)C3=O)c2c1", "MV4:11 human cancer cell lines", "GI50", "< 20 nM"],
  ["CCc1cc(C(=O)NCC2CN(C(=O)c3ccncc3)C2)c2nccc(N3CCc4c(cc(Cn5ccnc5)cc4-c4cn(C)nc4C(F)(F)F)C3=O)c2c1", "MV4:11 human cancer cell lines", "GI50", "< 20 nM"],
  ["CCc1cc(CN(C)C(C)=O)c2nccc(N3CCc4c(cc(Cn5ccnc5)cc4-c4cn(C)nc4C(F)(F)F)C3=O)c2c1", "MV4:11 human cancer cell lines", "GI50", "30 nM"],
  ["COc1cc(N2CCN(C)C(=O)C2)c2nc(C)cc(N3CCc4c(cc(Cn5ccnc5)cc4-c4cn(C)nc4C(F)(F)F)C3=O)c2c1", "MV4:11 human cancer cell lines", "GI50", "< 20 nM"],
  ["CCc1cc(C(=O)NCC2CN(C(=O)C3CCOCC3)C2)c2nccc(N3CCc4c(cc(Cn5ccnc5)cc4-c4cn(C)nc4C(F)(F)F)C3=O)c2c1", "MV4:11 human cancer cell lines", "GI50", "26 nM"]
]}

With those in mind, consider the next compound.
API: value(readout=GI50, system=MV4:11 human cancer cell lines) for record `COCc1cc(OC)cc2c(N3CCc4c(cc(Cn5ccnc5)cc4-c4cn(C)nc4C(F)(F)F)C3=O)ccnc12`
< 20 nM

---

tested on: MV4:11 human cancer cell lines; test: Cellular viability / anti-proliferative assay, CellTiter-Glo, 5 day protocol; format: cell-based; details: Homo sapiens, MV4-11, 120 h, MV4:11 cells; 5 day incubation; CellTiter-Glo; mean of at least two replicates; read-out: GI50 on cellular proliferation of MV4:11 human cancer cell lines
endpoint_label: GI50

As a guide, the following entries are already answered.
{"columns": ["molecule", "readout_value"],
 "data": [
  ["COc1cc(N2CCN(C)CC2)c2nc(C)cc(N3CCc4c(cc(Cn5ccnc5)cc4-c4cn(C)nc4C(F)(F)F)C3=O)c2c1 [Example 102]", "< 0.02 µM"],
  ["COc1cc(N2CCC(NC(C)=O)CC2)c2nc(C)cc(N3CCc4c(cc(Cn5ccnc5)cc4-c4cn(C)nc4C(F)(F)F)C3=O)c2c1 [Example 192]", "< 0.02 µM"],
  ["COc1cc2c(N3CCc4c(cc(Cn5ccnc5C)cc4-c4cn(C)nc4C(F)(F)F)C3=O)ccnc2cc1C [Example 6]", "0.032 µM"],
  ["CCc1cc(N2CCN(C(C)C)CC2)c2nc(C)cc(N3CCc4c(cc(Cn5ccnc5)cc4-c4cn(C)nc4C(F)(F)F)C3=O)c2c1 [Example 137]", "< 0.02 µM"],
  ["CCOC(=O)c1cc(CC)cc2c(N3CCc4c(cc(Cn5ccnc5)cc4-c4cn(C)nc4C(F)(F)F)C3=O)cc(C)nc12 [Example 162]", "0.088 µM"]
]}

Short answer please: GI50, MV4:11 human cancer cell lines, entry CCc1cc(N2CCn3cnnc3C2)c2nccc(N3CCc4c(cc(Cn5ccnc5)cc4-c4cn(C)nc4C(F)(F)F)C3=O)c2c1 [Example 208]
0.055 µM

Please tell me: GI50 of Cc1ccc2cncc(N3CCc4c(cc(Cc5cnc[nH]5)cc4-c4cn(C)nc4C(F)(F)F)C3=O)c2c1 [Example 55] , system MV4:11 human cancer cell lines?
0.059 µM

---

The listing below reports Ki for compounds tested on UniProtKB P61964.
Please reply with the bare figure in nM and do not write the unit itself.

Solved entries (count: 3):
{"columns": ["structure_smiles", "unit_info", "Ki"],
 "data": [
  ["COc1cc(CN2CCCCC2)c2nccc(N3CCc4c(cc(Cn5ccnc5)cc4-c4cn(C)nc4C(F)(F)F)C3=O)c2c1", "nM", 0.038],
  ["COc1ccc2c(C)ncc(N3CCc4c(cc(Cn5ccnc5)cc4-c4cn(C)nc4C(F)(F)F)C3=O)c2c1", "nM", 0.043],
  ["COc1cc(C)c2nccc(N3CCc4c(cc(Cn5ccnc5C)cc4-c4cn(C)nc4C(F)(F)F)C3=O)c2c1", "nM", 0.026]
]}

Request body: readout Ki, system UniProtKB P61964, query `CCc1cc(OC)c2cncc(N3CCc4c(cc(Cn5ccnc5)cc4-c4cn(C)nc4C(F)(F)F)C3=O)c2c1` . Return the value.
0.028

# get_value(readout= Ki, system= UniProtKB P61964) for `CCc1cc(N2CCN(C3COC3)CC2)c2nc(C)cc(N3CCc4c(cc(Cn5ccnc5)cc4-c4cn(C)nc4C(F)(F)F)C3=O)c2c1`
0.03

Could you share what Ki was measured for `COc1cnc2c(C)ccc(N3CCc4c(cc(Cn5ccnc5)cc4-c4cn(C)nc4C(F)(F)F)C3=O)c2c1` , tested on UniProtKB P61964?
0.022

// map `CCc1cc(N2CCN3CCOC[C@H]3C2)c2nc(C)cc(N3CCc4c(cc(Cn5ccnc5)cc4-c4cn(C)nc4C(F)(F)F)C3=O)c2c1` to recorded Ki (system: UniProtKB P61964)
0.03

I'm curious: which Ki was measured for `COc1ccc2nc(C)cc(N3CCc4c(cc(Cn5ccnc5N)cc4-c4cn(C)nc4C(F)(F)F)C3=O)c2c1` tested on UniProtKB P61964?
0.023

---

system: MV4:11 human cancer cell lines; experiment: Cellular viability / anti-proliferative assay, CellTiter-Glo, 5 day protocol; assay type: cell-based; conditions: Homo sapiens, MV4-11, 120 h, MV4:11 cells; 5 day incubation; CellTiter-Glo; mean of at least two replicates; read-out: GI50 on cellular proliferation of MV4:11 human cancer cell lines
endpoint_label: GI50

The following compounds have reported results that may help.
{"columns": ["compound", "readout_value"],
 "data": [
  ["CCc1cc(COC2CCOCC2)c2nccc(N3CCc4c(cc(Cn5ccnc5)cc4-c4cn(C)nc4C(F)(F)F)C3=O)c2c1 [Example 182]", "< 20 nM"],
  ["COc1cnc2cc(C)cc(N3CCc4c(cc(Cn5ccnc5N)cc4-c4cn(C)nc4C(F)(F)F)C3=O)c2c1 [Example 221]", "< 20 nM"],
  ["COc1cc2c(N3CCc4c(cc(Cn5ccnc5)cc4-c4cn(C)nc4C(F)(F)F)C3=O)cccc2nc1C [Example 114]", "43 nM"]
]}

Attention now turns to another entry.
Can you look up the measured GI50 of COc1cc(COC2CCN(C)CC2)c2nccc(N3CCc4c(cc(Cn5ccnc5)cc4-c4cn(C)nc4C(F)(F)F)C3=O)c2c1 [Example 169] for me?
< 20 nM
